Assay: yeast display, Sf9 membrane polyspecificity reagent, FACS + sequencing; frameworks hold sequencing errors
measured-parameter: polyreactivity (PSR sort gate)

GET /values?readout=polyreactivity (PSR sort gate)&item= `QVQLVESGGGLVQAGGSLRLSCAASGSTFASNTMGWYRQAPGKERELVAAITQSGGTTYYADSVKGRFTISRDNAKNTVYLQMNSLKPEDTAVYYCAADATFIIRYLSRSDYWGQGTQVTVSS`
low polyreactivity

GET /values?readout=polyreactivity (PSR sort gate)&item= `QVQLVESGGGLVQAGGSLRLSCAASGRIFQRYAMGWYRQAPGKERELVAAISKNGGRTYYADSVKGRFTISRDNAKNTVYLQMNSLKPEDTAVYYCNKGTAGYEYAAFDYWGQGTQVTVSS`
low polyreactivity

====

Assay: yeast display, Sf9 membrane polyspecificity reagent, FACS + sequencing; frameworks hold sequencing errors
measured-parameter: polyreactivity (PSR sort gate)

These recorded examples may help you get a feel for the data.
GET /values?readout=polyreactivity (PSR sort gate)&item= `QVQLVESGGGLVQAGGSLRLSCAASGSILSGYAMVWYRQAPGTERELVAAITSGGDTNYADSVKGRFTISRDNAKNTVYLQMNSLKPEETAVYYCAADPSYLGLFGYDYWGQGTQVTVSS`
low polyreactivity

GET /values?readout=polyreactivity (PSR sort gate)&item= `QVQLVESGGGLVQAGGSLRLSCAASGFIFRTNAMGWYRQAPGKERELVAAISRSGNTYYADSVKGRFTISRDNAKNTVYLQMNSLKPEDTAVYYCNAGWYGAYRWYRSDYWGQGTQVTVSS`
high polyreactivity

GET /values?readout=polyreactivity (PSR sort gate)&item= `QVQLVESGGGLVQAGGSLRLSCAASGRTFALYAMGWYRQAPGKERELVAAISSGGSTYYADSVKGRFTISRDNAKNTVYLQMNSLKPEDTAVYYCNARPKWGNRQSVRGYYILSPGGRMNYWGQGTQVTVSS`
high polyreactivity

GET /values?readout=polyreactivity (PSR sort gate)&item= `QVQLGESGGGLVQAGGSLRLTCAASGSIFSIYAMGWYIQAPGKERELVAAIDSGTSTTYADSVKGRFTISRDNAKYTVYLQMYSLKPEDTAVYYCAAALYSDVASVATYGYYWGQGTQVTVSS`
low polyreactivity

--- query ---
GET /values?readout=polyreactivity (PSR sort gate)&item= `QVQLVESGGGLVQAGGSLRLSCAASGRTFYKNAMGWYRQAPGKERELVAAISQRGGGTYYADSVKGRFTISRDNAKNTVYLQMNSLKPEDTAVYYCNAPLVFIHGSDYWGQGTQVTVSS`
high polyreactivity

====

Assay: yeast display, Sf9 membrane polyspecificity reagent, FACS + sequencing; frameworks hold sequencing errors
measured-parameter: polyreactivity (PSR sort gate)

GET /values?readout=polyreactivity (PSR sort gate)&item= `QVQLVESGGGLVQAGGSLRLSCAASGRTFPGYAMGWYRQAPGKERELVATITFSDGSTYYADSVKGRFTISRDNAKNSVYLQMNSLKQEDTAVYYCNARRSYFLRYGVNYWGQGNQVTVSS`
low polyreactivity

GET /values?readout=polyreactivity (PSR sort gate)&item= `QVQLVESGGGLVQAGGSLRLSCAASGRTFGTYAMGWYRQEPGKERELFATISSGGSTYYADSVKGRFTISRDNAKNTVYLLMNSLKPEDTAVYYCAAYRYFRPGDYWGQGTQVNVSS`
low polyreactivity

====

Assay: yeast display, Sf9 membrane polyspecificity reagent, FACS + sequencing; frameworks hold sequencing errors
measured-parameter: polyreactivity (PSR sort gate)

GET /values?readout=polyreactivity (PSR sort gate)&item= `QVQLVESGGGLVQAGGSLRISCAASGLTFGRYAMGWYRQAPGKEMELVAAITGSGGRTYYADSVKGRFTISRDNAKNNVYLQINSLKQEDTAVYYCATEASPRGYAEYDYWGQGTQVTVSS`
high polyreactivity

GET /values?readout=polyreactivity (PSR sort gate)&item= `QVQLVESGGGLVQAGCSLRLSCAATGRSFRRNTMGWYRQAPGKERELVAAISSSGSSTYYADSVKGRFTISRDNAKNTVFLQMNSLKPEDTAVYYCAARGRGQPFVRYDYWGQGTQVTVSS`
high polyreactivity

====

Test: yeast display, Sf9 membrane polyspecificity reagent, FACS + sequencing; frameworks hold sequencing errors
measured-parameter: polyreactivity (PSR sort gate)

GET /values?readout=polyreactivity (PSR sort gate)&item= `QVQLVESGGGLVQAGGSLRLSCAASGSTSTYYAMGWYRQAPGKERELVATISSTGNTKYADSVKGRFTISRDNAKNTVYLQMNSLKPEDTAVYYCNKRRSARFSSWGRVSYDYWGQGTQVTVSS`
high polyreactivity

GET /values?readout=polyreactivity (PSR sort gate)&item= `QVQLVESGGGLVQAGGSLRLSCAASGIIFSEYAMGWYRQAPGKERELVAAISKSGGRTYYADSVKGRFTISRDNAKNTVYLQMNSLKPEDTAVYYCAARHAPILGDHGDYDYWGQGTQVTVSS`
high polyreactivity

====

Assay: yeast display, Sf9 membrane polyspecificity reagent, FACS + sequencing; frameworks hold sequencing errors
measured-parameter: polyreactivity (PSR sort gate)

These recorded examples may help you get a feel for the data.
GET /values?readout=polyreactivity (PSR sort gate)&item= `QVHLVESGGGLVQAGGSLRLSSAASGRIFDRYAMGWYRQAPGKERELVAAITSRADRTYYADSLKGRFTISRDNAKNTVYLQMNSLKPEDTAVYYCNTDKKYRHRYGGILDYWGQGTEVTVSS`
high polyreactivity

GET /values?readout=polyreactivity (PSR sort gate)&item= `QVQLVESGGGLVQAGGSLRLSCAASGRTFDIYAMGWYRQAPGKARELVAAISIAGSTNYADSVKGRFTISRDNAKNTVYLQMNSLKPEDTAVYYCAAAKPKKSRGSAYEYWGQGTLVTVSS`
high polyreactivity

GET /values?readout=polyreactivity (PSR sort gate)&item= `QVQLVESGGGLVQAGGSLRLSCAASGRTFAIYAMGWYRQAPGKERELVASISSSGDRTYYADSVKGRFTISRDNAKNTVYLQMNSLKPEDTAVYYCAARWRYTYYYWGQGTQVTVSS`
high polyreactivity

GET /values?readout=polyreactivity (PSR sort gate)&item= `QVQLVESGGGLVQAGGSLRLRCAASGFIFIFNAMGWYRQAPGKERELVAAIDTSDDSTYYADSVKGRFTISRDNAKNTVYLQMNSLKPEDTAVYYCAAEELSNYEYWGQGTQVTVSS`
low polyreactivity

GET /values?readout=polyreactivity (PSR sort gate)&item= `QVQLVESGGGLVQAGGSLRLSCAASGSTFYYNAMVWYRQAPGKEREFVASISWRGGRTYYADSVKGRFTISRDNAKNTVYLQMNSLKQEDTAVYYCAKGYLALGQPDDYWGQGTQVTVSS`
high polyreactivity

Hi, could you look up polyreactivity (PSR sort gate) for each item in my list?
1. QVQLVDSGGGLVQAGGSIRLSCSPSGGTFGLNSMGWYRQAPGQERELVADIDGRGGSTYYADSVKGRFTISRDNAKNTVYLQMNRLKPEDPAVYYCADLAPFLSVPSELDYWRQGTQVTVSS
2. QVQLVESGGGLVQAGGSLRLSCAASGRTFTNYAMGWYRQAPGKERELVAAISKRGGTTYYADSVKGRFTISRDNAKNTVYLQMNSLKPEDTAVYYCNKAKTAYRGQYDYWGQGTQVTVSS
3. QVQLVESGGGLVQAGGSLRLSCAASGIIFGWYAMGWYRQAPGKEREFVATISWSGASTYYADSVKGRFTISRDNAKNTVYLQMNSLKPEDTAVYYCAAGGRRQAYGRRDYWGQGTQVTVSS
4. QVQLVESGGGLVQAGGSLRLSCAASGLTFVRYTMGWYRQPPGKVRELVAAITRGDGTNYADSVKGRFTISRDNAKNTVYLHLNCMKPEDTAVYLCADQEHFLWNYYAFDYWGQGTQVTVSS
5. QVHLVESGGGLVQAGGSLRLSCDASGSTFGYYAMGWYRQAPGKERELVAAISWNGVSTYYADSVKGRFTISRDNAKNTVYLQMNCLKPEDTAVYYCATVGLRRLFVNPGTLMDYWGEGTQVTVSS
6. QVQLVESGGGLVQAGGSLRLSCSASGSIFVGYAIGWYRQAPVKEMELDASISSGDDTYADSVKGRFTISRDNAKNSVYLQMNSLKPEDTAVYYCAKDSISVDCAYDYWVQGTQVTVSS

1: low polyreactivity; 2: high polyreactivity; 3: high polyreactivity; 4: low polyreactivity; 5: low polyreactivity; 6: low polyreactivity

====

Experiment: yeast display, Sf9 membrane polyspecificity reagent, FACS + sequencing; frameworks hold sequencing errors
measured-parameter: polyreactivity (PSR sort gate)

These recorded examples may help you get a feel for the data.
GET /values?readout=polyreactivity (PSR sort gate)&item= `QVQLVESGGGLVQAGGSLRLSCAASGIIFDFYAMGWYRPAPGKERELVAAITSSGGSTYYADSVKGRFTISRDNAKNTVYLQMNSLKPEDTAVYYCAAEYTIYGTDQRYNYWGQGTQVTVSS`
low polyreactivity

GET /values?readout=polyreactivity (PSR sort gate)&item= `QVQLVESGGGLVQAGGSLRLSCAASGRTFYYYARGWYRQAPGKERELVAAISSRGGSTYYADSVKGRFTISRDNAKNTVYLQMNSLKPEDTAVYYCAAERYFVLYRYYSYAYYYWGQGTQVTVSS`
high polyreactivity

GET /values?readout=polyreactivity (PSR sort gate)&item= `QVQLVESGGGLVQAGGSLRLSCAASGTFAIYAMGWYRQAPGKERELVAAIRWRGGRTYYADSVKGRFTISRDNAKNTVYFQMNSLKPEDTAVYYCAAEVPYYWWSPYRVDVGYWGQGTQVTVSS`
high polyreactivity

GET /values?readout=polyreactivity (PSR sort gate)&item= `QVQLVESGGGLVQAGGSLRLSCAASGRIFKYYAMGWYRQAPGKERELVAAISRSGGSTYYADSVKGRFTISRDNAKKTVYLQMNSLKPEDTAVYYCAAGYKQATYDRIRTAYGYWGQGTQVTVSS`
high polyreactivity

--- query ---
GET /values?readout=polyreactivity (PSR sort gate)&item= `QVQLVESGGGLVQAGGSLRLSCAASGITFKYNAMAWYRQAPGKEMELVAAISSGGNTYYADSVKGRFTISRDNAKNTVYLQMNSLKPEDTAVYYCAAPSYDTLWHDYWGQGTQVTVSS`
low polyreactivity
